Consider the following substances; for each one, report its Therapeutic Index (TI) G+.
# Test system: Gram-positive bacteria
# protocolNotes: Geometric mean MIC and therapeutic index, Gram-positive bacteria
# Assay type: cell-based
# conditionLabel: HC10/GM, Gram-positive bacteria
API note: the answer field is a bare number with no unit suffix.

### Prompt GET /values?readout=Therapeutic Index (TI) G+&system=Gram-positive bacteria&item= Ac-KKKKWRKWLKWLA-NH2 [Peptide W5K11]
### Response 13.0

### Prompt GET /values?readout=Therapeutic Index (TI) G+&system=Gram-positive bacteria&item= Ac-LKWLAKKKKWRKW-NH2 [Peptide W5K06]
### Response 1.4

### Prompt GET /values?readout=Therapeutic Index (TI) G+&system=Gram-positive bacteria&item= Ac-AKKKKWRKWLKWL-NH2 [Peptide W5K10]
### Response 11.5

### Prompt GET /values?readout=Therapeutic Index (TI) G+&system=Gram-positive bacteria&item= Ac-KWLAKKKKWRKWL-NH2 [Peptide W5K07]
### Response 1.2

### Prompt GET /values?readout=Therapeutic Index (TI) G+&system=Gram-positive bacteria&item= Ac-WLKWLAKKKKWRK-NH2 [Peptide W5K05]
### Response 3.3

### Prompt GET /values?readout=Therapeutic Index (TI) G+&system=Gram-positive bacteria&item= Ac-LAKKKKWRKWLKW-NH2 [Peptide W5K09]
### Response 1.4

### Prompt GET /values?readout=Therapeutic Index (TI) G+&system=Gram-positive bacteria&item= Ac-WRKWLKWLAKKKK-NH2 [Peptide W5K02]
### Response 0.8

### Prompt GET /values?readout=Therapeutic Index (TI) G+&system=Gram-positive bacteria&item= Ac-WLAKKKKWRKWLK-NH2 [Peptide W5K08]
### Response 1.4

### Prompt GET /values?readout=Therapeutic Index (TI) G+&system=Gram-positive bacteria&item= Ac-KWLKWLAKKKKWR-NH2 [Peptide W5K04]
### Response 1.6

### Prompt GET /values?readout=Therapeutic Index (TI) G+&system=Gram-positive bacteria&item= Ac-RKWLKWLAKKKKW-NH2 [Peptide W5K03]
### Response 1.6

### Prompt GET /values?readout=Therapeutic Index (TI) G+&system=Gram-positive bacteria&item= Ac-KKWRKWLKWLAKK-NH2 [W5K/A9W]
### Response 3.6

### Prompt GET /values?readout=Therapeutic Index (TI) G+&system=Gram-positive bacteria&item= Ac-KWRKWLKWLAKKK-NH2 [Peptide W5K01]
### Response 2.5

### Prompt GET /values?readout=Therapeutic Index (TI) G+&system=Gram-positive bacteria&item= Ac-KKKWRKWLKWLAK-NH2 [Peptide W5K12]
### Response 8.8

###

# System: S. aureus ATCC 33591
# conditionLabel: LYM broth, 0 mM NaCl; 16 h, 37 °C
measureName: MIC (mg/L)
The reply should be a number in mg/L, with the unit left off.

### Prompt GET /values?readout=MIC&system=S. aureus ATCC 33591&item= Ac-RKWLKWLAKKKKW-NH2 [Peptide W5K03]
### Response 25

### Prompt GET /values?readout=MIC&system=S. aureus ATCC 33591&item= Ac-WLAKKKKWRKWLK-NH2 [Peptide W5K08]
### Response 25

### Prompt GET /values?readout=MIC&system=S. aureus ATCC 33591&item= Ac-AKKKKWRKWLKWL-NH2 [Peptide W5K10]
### Response 3.13

### Prompt GET /values?readout=MIC&system=S. aureus ATCC 33591&item= Ac-LAKKKKWRKWLKW-NH2 [Peptide W5K09]
### Response 25

### Prompt GET /values?readout=MIC&system=S. aureus ATCC 33591&item= Ac-KWRKWLKWLAKKK-NH2 [Peptide W5K01]
### Response 6.25

### Prompt GET /values?readout=MIC&system=S. aureus ATCC 33591&item= Ac-KWLKWLAKKKKWR-NH2 [Peptide W5K04]
### Response 25

### Prompt GET /values?readout=MIC&system=S. aureus ATCC 33591&item= Ac-KKWRKWLKWLAKK-NH2 [W5K/A9W]
### Response 3.13

Values were extracted from paper PMC12649549.
